Data provenance is patent US10233180B2.

// IC50 lookup, one value per entry
# Test system: Human ovarian cancer cell strain OVCAR-8
# experimental-details: MTT assay, inhibition of tumor cell growth in vitro, 72 h
# Assay type: cell-based
# assay-setup: Homo sapiens, OVCAR-8, MTT, read-out: Antitumor proliferative activities of tumor cell (IC50, μM) OVCAR-8
All answers are understood in µM, so give the number only.

1) Cn1ncc(Cl)c1-c1cc(C(=O)N[C@@H]2CNC(CC(O)CO)C[C@H]2c2ccc(Cl)c(Cl)c2)oc1Cl (stereo partly shown) [Compound 112]	0.33
2) Cc1cnn(C)c1-c1cnc(C(=O)N[C@H]2CNCC[C@@H]2c2ccc(F)c(F)c2)cc1F [Compound 61]	8.44
3) Cn1ncc(Cl)c1-c1ccc(C(=O)N[C@@H]2CNCC[C@H]2c2ccc(Cl)c(C(F)(F)F)c2)nc1 [Compound 96]	2.41
4) Cn1ncc(Cl)c1-c1cc(C(=O)N[C@H]2CNCC[C@@H]2c2ccc(Cl)cc2)oc1Cl (racemic) [Compound 2]	6.45

// below: IC50 requested for another compound
Q: I'm curious: which IC50 was measured for Cn1ncc(Cl)c1-c1ccc(C(=O)N[C@@H]2CNCC[C@H]2c2cccc(F)c2)s1 [Compound 138] tested on Human ovarian cancer cell strain OVCAR-8?
A: 3.01
